I'd appreciate it if you could supply koff values for the items below.
- target-or-system: SARS-CoV-2 RBD (residues 331-550 of spike from BetaCoV/Wuhan-Hu-1/2019, accession number MN908947) (SARS-CoV-2 Wuhan-Hu-1, UniProt P0DTC2 331-550)
- method-notes: BLI
Numbers only, in s⁻¹.

Worked set:
Prompt: Entry under review: S2X259 variant antibody, VH SEQ ID NO 459 / VL SEQ ID NO 445 (antibody, V domains shown) VH: QVQLVQSGAEVKKPGSSVKVSCKASGGIFNTYTISWVRQAPGQGLEWMGRIILMSGKANYAQKIQGRVTITADKSTSTAYMELTSLRSDDTAVYYCARGFNGNYYGWGDDDAFDIWGQGTLVTVSS VL: QTVLTQPPSVSGAPGQRVTISCTGSNSNIGAGYDVHWYQQLPGTAPKLLIVGNSNRPSGVPDRFSGSKSGTSASLAITGLQAEDEADYYCQSYDSSLSGPNWVFGGGTKLTVL . Reported koff?
Completion: 6.46e-05

Prompt: Entry under review: S2X259 variant antibody, VH SEQ ID NO 458 / VL SEQ ID NO 445 (antibody, V domains shown) VH: QVQLVQSGAEVKKPGSSVKVSCKASGGIFNTYTISWVRQAPGQGLEWMGRIILMSGMANYAQKIQGRVTITADKSTSTAYMELTSLRSDDTAVYYCARGFNGNYYGWGDDDAFDIWGQGTLVTVSS VL: QTVLTQPPSVSGAPGQRVTISCTGSNSNIGAGYDVHWYQQLPGTAPKLLIVGNSNRPSGVPDRFSGSKSGTSASLAITGLQAEDEADYYCQSYDSSLSGPNWVFGGGTKLTVL . Reported koff?
Completion: 5.03e-05

Prompt: Entry under review: S2X259 variant antibody, VH SEQ ID NO 408 / VL SEQ ID NO 445 (antibody, V domains shown) VH: QVQLVQSGAEVKKPGSSVKVSCKASGGIFNTYTISWVRQAPGQGLEWMGRIILMSGMANYAQKIQGRVTITADKSTSTAYMELTSLRSDDTAVYYCARGFNGNYYGWGDDDAFDISGQGTLVTVYS VL: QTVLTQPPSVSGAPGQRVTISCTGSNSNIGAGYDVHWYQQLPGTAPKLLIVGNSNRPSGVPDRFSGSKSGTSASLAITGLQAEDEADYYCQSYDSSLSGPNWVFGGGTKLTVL . Reported koff?
Completion: 2.08e-05

Here's the next entry for you.
Prompt: Entry under review: S2X259 variant antibody, VH SEQ ID NO 460 / VL SEQ ID NO 445 (antibody, V domains shown) VH: QVQLVQSGAEVKKPGSSVKVSCKASGGIFNTYTISWVRQAPGQGLEWMGRIILISGIANYAQKIQGRVTITADKSTSTAYMELTSLRSDDTAVYYCARGFNGNYYGWGDDDAFDIWGQGTLVTVSS VL: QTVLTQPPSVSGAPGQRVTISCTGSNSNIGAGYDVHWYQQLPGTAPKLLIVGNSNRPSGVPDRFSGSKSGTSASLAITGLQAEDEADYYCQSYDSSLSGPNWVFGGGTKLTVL . Reported koff?
Completion: 0.000177
